tested on: EGFR Exon 20 InsNPH Ba/F3; test: CellTiter-Glo cell viability, EGFR Exon 20 InsNPH Ba/F3; format: cell-based; conditions: Mus musculus, BaF3, 72 h, read-out: EGFR Exon 20 InsNPH Ba/F3 CTG IC50
Recorded measurements of IC50, one per entry

The following molecules have reported results that may help.
• C=CC(=O)Nc1cc(-c2c(-c3cnn(C(C)C)c3)[nH]c3ncc(C(=O)OC(C)C)c(C)c23)ccc1C = ≤ 50 nM
• C=CC(=O)Nc1cc(-c2c(-c3cnn(CC)c3)[nH]c3ncc(C(=O)OC(C)C)c(C)c23)ccc1C = ≤ 50 nM
• C=CC(=O)Nc1cc(-c2c(-c3cnn(C)c3)[nH]c3ncc(-c4cnn(CCOC)c4)cc23)ccc1C = 100 to 500 nM

C=CC(=O)Nc1cc(-c2c(-c3cnn(C)c3)[nH]c3ncc(C(=O)OC(C)C)cc23)cc(F)c1C [Example 2, 2,2,2-trifluoroacetate] has a reported IC50 of 100 to 500 nM
